FYI, the data here is from patent US10907134B2.

# protocol: Substrate specificities of KAZ mutants (ZZ-fused, crude enzyme), CTZ
# Assay type: biochemical
# condition-parameters: ZZ-fused crude enzyme; 1 μg substrate; integrated for 60 seconds
// values below are reported Relative Luminescence Activity CTZ Int.
Just the number, please.

Completed entries (count: 2):
| molecule | Relative Luminescence Activity CTZ Int. |
| --- | --- |
| KAZ-V44I-A54I-Y138I: KAZ mutant with three amino acid substitutions V44I, A54I and Y138I, SEQ ID NO: 16 (protein) FTLADFVGDWQQTAGYNQDQVLEQGGLSSLFQALGVSVTPIQKIVLSGENGLKIDIHVIIPYEGLSGFQMGLIEMIFKVVYPVDDHHFKIILHYGTLVIDGVTPNMIDYFGRPYPGIAVFDGKQITVTGTLWNGNKIIDERLINPDGSLLFRVTINGVTGWRLCENILA | 66.7 |
| KAZ-Y138I: KAZ with single amino acid substitution Y138I, SEQ ID NO: 8 (protein) FTLADFVGDWQQTAGYNQDQVLEQGGLSSLFQALGVSVTPIQKVVLSGENGLKADIHVIIPYEGLSGFQMGLIEMIFKVVYPVDDHHFKIILHYGTLVIDGVTPNMIDYFGRPYPGIAVFDGKQITVTGTLWNGNKIIDERLINPDGSLLFRVTINGVTGWRLCENILA | 5.9 |

Now let's try a different one.
Kindly indicate its recorded Relative Luminescence Activity CTZ Int.. Item: KAZ-A54I: KAZ with single amino acid substitution A54I, SEQ ID NO: 6 (protein) FTLADFVGDWQQTAGYNQDQVLEQGGLSSLFQALGVSVTPIQKVVLSGENGLKIDIHVIIPYEGLSGFQMGLIEMIFKVVYPVDDHHFKIILHYGTLVIDGVTPNMIDYFGRPYPGIAVFDGKQITVTGTLWNGNKIYDERLINPDGSLLFRVTINGVTGWRLCENILA 9.0
